target: T1, recombinant human IL-13 (human, UniProt P35225 35-146); assay: SPR
T1 construct: also called rh-IL-13; hIL-13
T1 sequence (P35225 35-146 limits assumed): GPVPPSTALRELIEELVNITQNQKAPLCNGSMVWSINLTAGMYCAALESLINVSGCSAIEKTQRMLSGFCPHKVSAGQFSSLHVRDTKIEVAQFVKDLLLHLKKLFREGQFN
value_kind: koff (s⁻¹)
Your answer should be a plain number; it is taken to be in s⁻¹.

- binder: "BDG38.129 (antibody, V domains shown, IgG1) VH: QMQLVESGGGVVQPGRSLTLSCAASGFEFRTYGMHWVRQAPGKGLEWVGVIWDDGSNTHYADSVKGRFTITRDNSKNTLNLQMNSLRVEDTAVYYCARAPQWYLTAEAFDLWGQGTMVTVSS VL: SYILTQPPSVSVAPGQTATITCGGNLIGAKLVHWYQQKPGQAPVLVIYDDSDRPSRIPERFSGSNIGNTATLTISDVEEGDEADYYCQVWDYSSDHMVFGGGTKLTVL"
  koff [s⁻¹]: 0.000116

Next:
Write down koff measured for item BDG38.137 (antibody, V domains shown, IgG1) VH: QMQLVESGGGVVQPGQSLRLSCAASGFEFRTYGMHWVRQAPGKGLEWVAVIWDDGSNTHYADSVKGRFTITRDNSKNTLNLQMNSLRAEDTAVYYCVRAPQWYLTAEAFDLWGQGTMVTVSS VL: SYVLTQPPSVSVAPGETATITCGGNLIGARLVHWYQQKPGQAPVLVIYDDSDRPSHIPERFSGSNSGNTATLTISRVEAGDEADYYCQVWDYSADTMVFGGGTKLTVL 0.000252
